Recorded values, source paper PMC6493301.

Assay: Mouse pharmacokinetics after a single oral dose
Format: in vivo
Settings: mouse, in vivo, po; fasted male mice, single p.o. dose 15 mg/kg, mean ± SD, n = 3; read-out: Tmax, time to reach the maximum plasma-concentration
quantity-name: Tmax (h)
Entry rule: numbers only, all in h.

[ask] Which value of Tmax has been reported for Cc1nc2ccc(C(=O)N3CCC4(CC3)CC(=O)c3c(cnn3C(C)C)C4)cc2[nH]1 in the records?
[reply] 1.67

----------
Experiment: Mouse pharmacokinetics after a single oral dose
Assay type: in vivo
Conditions: male, mouse, in vivo, po, 15 mg/kg, fasted male mice, single p.o. dose 15 mg/kg, mean ± SD, n = 3; read-out: Cmax, maximum plasma-concentration
quantity-name: Cmax (ng/mL)
Enter your answer as a number in ng/mL; do not include the unit.

[ask] Please give the measured Cmax for this compound: Cc1nc2ccc(C(=O)N3CCC4(CC3)CC(=O)c3c(cnn3C(C)C)C4)cc2[nH]1 [PF-05175157]
[reply] 903
